biological target: CK2A1 (Homo sapiens); construct: purchased Eurofins; test: Radiometric kinase assay (Eurofins), CK2A1; format: biochemical; conditions: Table 11; aurones; read-out: CK2A1 RAD IC50
Sequence (P68400 whole entry): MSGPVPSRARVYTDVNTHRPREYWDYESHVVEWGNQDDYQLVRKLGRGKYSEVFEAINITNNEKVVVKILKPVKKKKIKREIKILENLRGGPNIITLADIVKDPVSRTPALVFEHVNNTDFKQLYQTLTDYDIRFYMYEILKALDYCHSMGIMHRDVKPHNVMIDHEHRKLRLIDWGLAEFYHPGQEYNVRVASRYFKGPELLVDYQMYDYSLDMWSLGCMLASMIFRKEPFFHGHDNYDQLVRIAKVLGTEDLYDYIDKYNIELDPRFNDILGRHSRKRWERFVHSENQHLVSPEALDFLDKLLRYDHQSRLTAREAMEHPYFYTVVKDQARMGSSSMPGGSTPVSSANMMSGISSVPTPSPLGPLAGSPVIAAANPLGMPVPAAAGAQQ

- Compound: "O=C1/C(=C/c2ccc(O)cc2Br)Oc2c(Br)cc(Br)cc21 [JKT.758A]"
  IC50: "> 5 µM"
- Compound: "O=C1/C(=C/c2cc(Cl)c(O)c(Cl)c2)Oc2c(Br)cc(Br)cc21 [JKT.822A]"
  IC50: "2.01 µM"
- Compound: "O=C1/C(=C/c2ccc(O)c(I)c2)Oc2c(Br)cc(Br)cc21 [JKT.728A]"
  IC50: "0.081 µM"
- Compound: "COc1ccc2c(c1Br)O/C(=C\\c1ccc(O)cc1Cl)C2=O [JKT.818A]"
  IC50: "> 5 µM"

###

Overview of recorded IC50 for various compounds
target: CK2A2 (Homo sapiens, UniProt P19784); construct: purchased Eurofins; experiment: Radiometric kinase assay (Eurofins), CK2A2; format: biochemical; conditions: Table 8; quinazolinones; read-out: CK2A2 RAD IC50
Sequence (P19784 whole entry): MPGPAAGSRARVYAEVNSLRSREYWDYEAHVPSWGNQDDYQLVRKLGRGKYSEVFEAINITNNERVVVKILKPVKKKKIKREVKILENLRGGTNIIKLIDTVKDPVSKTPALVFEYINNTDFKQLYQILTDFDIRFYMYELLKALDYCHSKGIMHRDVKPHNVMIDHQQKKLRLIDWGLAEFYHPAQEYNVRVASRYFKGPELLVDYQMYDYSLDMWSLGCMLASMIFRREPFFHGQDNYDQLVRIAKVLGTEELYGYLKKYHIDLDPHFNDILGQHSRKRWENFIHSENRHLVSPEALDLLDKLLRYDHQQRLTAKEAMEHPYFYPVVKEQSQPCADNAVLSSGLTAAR

- Compound: "COc1cc(-c2nc3c(Cl)cc(Cl)cc3c(=O)[nH]2)ccc1O [JKT.810A]"
  Unit abbrev: "nM"
  Comparison sign: ">"
  IC50: 5000
- Compound: "O=c1[nH]c(-c2ccc(O)c(Br)c2)nc2c(Br)cccc12 [JKT.827A]"
  Unit abbrev: "nM"
  Comparison sign: "="
  IC50: 860
- Compound: "COc1nc(-c2nc3c(Br)cc(Br)cc3c(=O)n2C)ccc1O [JKT.983A]"
  Unit abbrev: "nM"
  Comparison sign: "="
  IC50: 900
- Compound: "O=c1[nH]c(-c2ccc(O)c(Cl)c2)nc2c(Cl)cc(Cl)cc12 [JKT.806A]"
  Unit abbrev: "nM"
  Comparison sign: ">"
  IC50: 5000
- Compound: "Cn1c(-c2ccc(O)c(Br)c2)nc2c(Br)cccc2c1=O [JKT.866A]"
  Unit abbrev: "nM"
  Comparison sign: ">"
  IC50: 5000
- Compound: "COc1nc(-c2nc3c(Br)nc(Br)cc3c(=O)[nH]2)ccc1O [JKT.976B]"
  Unit abbrev: "nM"
  Comparison sign: "="
  IC50: 495
- Compound: "Cn1c(-c2ccc(O)c(Cl)c2)nc2c(Br)cccc2c1=O [JKT.870A]"
  Unit abbrev: "nM"
  Comparison sign: ">"
  IC50: 5000
- Compound: "O=c1[nH]c(-c2cc(Cl)c(O)c(Cl)c2)nc2c(Br)cccc12 [JKT.829A]"
  Unit abbrev: "nM"
  Comparison sign: "="
  IC50: 659
- Compound: "O=c1[nH]c(-c2ccc(O)c(Br)c2)nc2c(Cl)cc(Cl)cc12 [JKT.805A]"
  Unit abbrev: "nM"
  Comparison sign: "="
  IC50: 2830

###

system: IL-6 secretion; experiment: IL-6 secretion assay in astrocytes (Promega Lumit IL-6 kit); format: cell-based, human; conditions: Homo sapiens, Astrocyte; Table 11; read-out: IL6-Inhib.
Reported IC50 values follow for various compounds
Recorded endpoint: IC50 (µM)

- Compound: "COc1c(Br)cc2c(c1Br)O/C(=C\\c1ccc(O)c(I)c1)C2=O [JKT.813A]"
  Measurement target: "IL-6 secretion"
  Recorded endpoint: "IC50"
  Unit abbrev: "µM"
  Comparison sign: "="
  Measured number: 1.1
- Compound: "COc1ccc2c(c1Br)O/C(=C\\c1ccc(O)cc1Cl)C2=O [JKT.818A]"
  Measurement target: "IL-6 secretion"
  Recorded endpoint: "IC50"
  Unit abbrev: "µM"
  Comparison sign: ">"
  Measured number: 10
- Compound: "COc1c(Br)cc2c(c1Br)O/C(=C\\c1ccc(O)c(Br)c1)C2=O [JKT.759A]"
  Measurement target: "IL-6 secretion"
  Recorded endpoint: "IC50"
  Unit abbrev: "µM"
  Comparison sign: "="
  Measured number: 2.3
- Compound: "O=C1/C(=C/c2ccc(O)cc2Cl)Oc2c(Br)cc(Br)cc21 [JKT.727A]"
  Measurement target: "IL-6 secretion"
  Recorded endpoint: "IC50"
  Unit abbrev: "µM"
  Comparison sign: "="
  Measured number: 4.7
- Compound: "COc1c(Br)cc2c(c1Br)O/C(=C\\c1ccc(O)cc1Cl)C2=O [JKT.762A]"
  Measurement target: "IL-6 secretion"
  Recorded endpoint: "IC50"
  Unit abbrev: "µM"
  Comparison sign: "="
  Measured number: 4.4
- Compound: "O=C1/C(=C/c2ccc(O)cc2Br)Oc2c(Br)cc(Br)cc21 [JKT.758A]"
  Measurement target: "IL-6 secretion"
  Recorded endpoint: "IC50"
  Unit abbrev: "µM"
  Comparison sign: "="
  Measured number: 3
- Compound: "COc1ccc2c(c1Br)O/C(=C\\c1ccc(O)c(I)c1)C2=O [JKT.814A]"
  Measurement target: "IL-6 secretion"
  Recorded endpoint: "IC50"
  Unit abbrev: "µM"
  Comparison sign: "="
  Measured number: 4.3
- Compound: "COc1ccc2c(c1Br)O/C(=C\\c1ccc(O)c(Cl)c1)C2=O [JKT.817A]"
  Measurement target: "IL-6 secretion"
  Recorded endpoint: "IC50"
  Unit abbrev: "µM"
  Comparison sign: "="
  Measured number: 6.5
- Compound: "O=C1/C(=C/c2ccc(O)c(I)c2)Oc2c(Br)cc(Br)cc21 [JKT.728A]"
  Measurement target: "IL-6 secretion"
  Recorded endpoint: "IC50"
  Unit abbrev: "µM"
  Comparison sign: "="
  Measured number: 1.7
- Compound: "COc1ccc2c(c1Br)O/C(=C\\c1ccc(O)c(Br)c1)C2=O [JKT.815A]"
  Measurement target: "IL-6 secretion"
  Recorded endpoint: "IC50"
  Unit abbrev: "µM"
  Comparison sign: "="
  Measured number: 4.6
- Compound: "COc1ccc2c(c1Br)O/C(=C\\c1ccc(C(=O)O)cc1)C2=O [JKT.821A]"
  Measurement target: "IL-6 secretion"
  Recorded endpoint: "IC50"
  Unit abbrev: "µM"
  Comparison sign: ">"
  Measured number: 10
- Compound: "COc1ccc2c(c1Br)O/C(=C\\c1ccc(O)c(C(F)(F)F)c1)C2=O [JKT.819A]"
  Measurement target: "IL-6 secretion"
  Recorded endpoint: "IC50"
  Unit abbrev: "µM"
  Comparison sign: "="
  Measured number: 5.9
- Compound: "COc1ccc2c(c1Br)O/C(=C\\c1ccc(O)cc1Br)C2=O [JKT.816A]"
  Measurement target: "IL-6 secretion"
  Recorded endpoint: "IC50"
  Unit abbrev: "µM"
  Comparison sign: ">"
  Measured number: 10
- Compound: "COc1cc(/C=C2\\Oc3c(ccc(OC)c3Br)C2=O)ccc1O [JKT.820A]"
  Measurement target: "IL-6 secretion"
  Recorded endpoint: "IC50"
  Unit abbrev: "µM"
  Comparison sign: ">"
  Measured number: 10

###

molecular target: CK2A2 (Homo sapiens, UniProt P19784); construct: purchased Eurofins; experiment: Radiometric kinase assay (Eurofins), CK2A2; format: biochemical; conditions: Table 4; read-out: CK2A2 RAD IC50
// boundary case: IC50 equal to 60 nM maps to false (0); strictly smaller maps to true (1)

- Compound: "O=c1cc(-c2ccc(O)c(Br)n2)oc2c(Br)cc(Br)cc12 [JKT.844A]"
  Measurement target: "CK2A2 (Homo sapiens, UniProt P19784)"
  Answer label: "false (0)"
- Compound: "O=c1cc(-c2cc(Br)c(O)cn2)oc2c(Br)cc(Br)cc12 [JKT.923A]"
  Measurement target: "CK2A2 (Homo sapiens, UniProt P19784)"
  Answer label: "true (1)"
- Compound: "O=c1cc(-c2ccc(O)c(Br)c2)oc2c(Br)nc(Br)cc12 [JKT.909A]"
  Measurement target: "CK2A2 (Homo sapiens, UniProt P19784)"
  Answer label: "true (1)"
- Compound: "O=c1cc(-c2ccc(O)c(Cl)n2)oc2c(Br)cc(Br)cc12 [JKT.801A]"
  Measurement target: "CK2A2 (Homo sapiens, UniProt P19784)"
  Answer label: "true (1)"
- Compound: "O=c1cc(-c2cc(Br)c(O)cn2)oc2c(Br)cccc12 [JKT.980A]"
  Measurement target: "CK2A2 (Homo sapiens, UniProt P19784)"
  Answer label: "true (1)"

###

assay: Aqueous solubility; assay type: physicochemical; conditions: Table 11; read-out: Aqueous Solubility

- Compound: "COc1cc(/C=C2\\Oc3c(ccc(OC)c3Br)C2=O)ccc1O [JKT.820A]"
  Unit abbrev: "µM"
  Comparison sign: "<"
  solubility: 0.01
- Compound: "COc1ccc2c(c1Br)O/C(=C\\c1ccc(O)cc1Br)C2=O [JKT.816A]"
  Unit abbrev: "µM"
  Comparison sign: "<"
  solubility: 0.01
- Compound: "COc1c(Br)cc2c(c1Br)O/C(=C\\c1ccc(C(=O)O)cc1)C2=O [JKT.765A]"
  Unit abbrev: "µM"
  Comparison sign: ">"
  solubility: 200
- Compound: "COc1cc(/C=C2\\Oc3c(cc(Br)c(OC)c3Br)C2=O)ccc1O [JKT.764A]"
  Unit abbrev: "µM"
  Comparison sign: "<"
  solubility: 0.01
- Compound: "COc1ccc2c(c1Br)O/C(=C\\c1ccc(O)cc1Cl)C2=O [JKT.818A]"
  Unit abbrev: "µM"
  Comparison sign: "<"
  solubility: 0.01
- Compound: "COc1ccc2c(c1Br)O/C(=C\\c1ccc(O)c(C(F)(F)F)c1)C2=O [JKT.819A]"
  Unit abbrev: "µM"
  Comparison sign: "="
  solubility: 17
- Compound: "O=C1/C(=C/c2ccc(O)c(Cl)c2)Oc2c(Br)cc(Br)cc21 [JKT.726A]"
  Unit abbrev: "µM"
  Comparison sign: "="
  solubility: 7.8
- Compound: "COc1c(Br)cc2c(c1Br)O/C(=C\\c1ccc(O)c(Cl)c1)C2=O [JKT.761A]"
  Unit abbrev: "µM"
  Comparison sign: "="
  solubility: 120
- Compound: "O=C1/C(=C/c2cc(Cl)c(O)c(Cl)c2)Oc2c(Br)cc(Br)cc21 [JKT.822A]"
  Unit abbrev: "µM"
  Comparison sign: "<"
  solubility: 0.01
- Compound: "COc1ccc2c(c1Br)O/C(=C\\c1ccc(O)c(Br)c1)C2=O [JKT.815A]"
  Unit abbrev: "µM"
  Comparison sign: "<"
  solubility: 0.01
- Compound: "O=C1/C(=C/c2ccc(O)c(I)c2)Oc2c(Br)cc(Br)cc21 [JKT.728A]"
  Unit abbrev: "µM"
  Comparison sign: "="
  solubility: 17.7
- Compound: "COc1c(Br)cc2c(c1Br)O/C(=C\\c1ccc(O)c(C(F)(F)F)c1)C2=O [JKT.763A]"
  Unit abbrev: "µM"
  Comparison sign: "="
  solubility: 7.9
- Compound: "COc1ccc2c(c1Br)O/C(=C\\c1ccc(C(=O)O)cc1)C2=O [JKT.821A]"
  Unit abbrev: "µM"
  Comparison sign: "="
  solubility: 196
- Compound: "O=C1/C(=C/c2ccc(O)cc2Cl)Oc2c(Br)cc(Br)cc21 [JKT.727A]"
  Unit abbrev: "µM"
  Comparison sign: "="
  solubility: 73.7
- Compound: "COc1c(Br)cc2c(c1Br)O/C(=C\\c1cc(Cl)c(O)c(Cl)c1)C2=O [JKT.823A]"
  Unit abbrev: "µM"
  Comparison sign: "="
  solubility: 167
- Compound: "COc1c(Br)cc2c(c1Br)O/C(=C\\c1ccc(O)c(Br)c1)C2=O [JKT.759A]"
  Unit abbrev: "µM"
  Comparison sign: "="
  solubility: 3.6
- Compound: "COc1c(Br)cc2c(c1Br)O/C(=C\\c1ccc(O)c(I)c1)C2=O [JKT.813A]"
  Unit abbrev: "µM"
  Comparison sign: "<"
  solubility: 0.01
- Compound: "COc1ccc2c(c1Br)O/C(=C\\c1ccc(O)c(I)c1)C2=O [JKT.814A]"
  Unit abbrev: "µM"
  Comparison sign: "<"
  solubility: 0.01
- Compound: "COc1c(Br)cc2c(c1Br)O/C(=C\\c1ccc(O)cc1Cl)C2=O [JKT.762A]"
  Unit abbrev: "µM"
  Comparison sign: "="
  solubility: 58.6
- Compound: "COc1ccc2c(c1Br)O/C(=C\\c1ccc(O)c(Cl)c1)C2=O [JKT.817A]"
  Unit abbrev: "µM"
  Comparison sign: "<"
  solubility: 0.01
- Compound: "O=C1/C(=C/c2ccc(O)cc2Br)Oc2c(Br)cc(Br)cc21 [JKT.758A]"
  Unit abbrev: "µM"
  Comparison sign: "="
  solubility: 2.7
- Compound: "COc1c(Br)cc2c(c1Br)O/C(=C\\c1ccc(O)cc1Br)C2=O [JKT.760A]"
  Unit abbrev: "µM"
  Comparison sign: "="
  solubility: 184
- Compound: "COc1ccc2c(c1Br)O/C(=C\\c1cc(Cl)c(O)c(Cl)c1)C2=O [JKT.824A]"
  Unit abbrev: "µM"
  Comparison sign: ">"
  solubility: 200
